Hi there, I'd appreciate the recorded LD50 at 168 h for every entry that follows.
- assay_explanation: (iii) Acute toxicity (LD50) in mice
- protocol_conditions: mouse, in vivo, ip, intraperitoneal, mortality within 7 days, read-out: LD50 Intraperitoneal administration

Qu. Please list LD50 at 168 h recorded for the molecule CCCCCCCCCCCCCCCCNc1ccc(-c2nc(CC(=O)[O-])c(OCC)o2)cc1.[Na+]
Ans. > 1000 mg/kg

Qu. Specify LD50 at 168 h for CCOC(=O)C(C)(C)Oc1ccc(Cl)cc1 [Compound E, Clofibrate, reference compound] and stop.
Ans. > 1000 mg/kg

Qu. Kindly indicate its recorded LD50 at 168 h. Item: CCCCCCCCCCCCCCCCOc1ccc(-c2nc(CC(=O)O)c(OCC)o2)cc1 [Compound A]
Ans. > 1000 mg/kg

----------
- Test system: Cholesterol and triglyceride in the serum
- assay_explanation: (i) Serum cholesterol and triglyceride reduction in rats fed a diet containing 1% of cholesterol
- Format: in vivo, Male Sprague-Dowley rats
- protocol_conditions: rats on diet containing 1% cholesterol, test compound 0.1% (W/W) in diet, oral, 5 days, control = 100%
outcome_measure: Reduction Rate (%) Triglyceride
Give just the number in %; leave the unit off.

Qu. Quick one: give measured Reduction Rate (%) Triglyceride for CCOc1oc(-c2ccc(OCc3ccc(Cl)cc3)cc2)nc1CC(=O)O
Ans. 42

Qu. Give Reduction Rate (%) Triglyceride for CCOC(=O)C(C)(C)Oc1ccc(Cl)cc1 [Compound E, Clofibrate, reference compound]
Ans. 23

Qu. # return recorded Reduction Rate (%) Triglyceride for input CCCCCCCCCCCCCCCCOc1ccc(-c2nc(CC(=O)O)c(OCC)o2)cc1
Ans. 35

Qu. Using known records, supply Reduction Rate (%) Triglyceride for CCCCCCCCCCCCCCCCNc1ccc(-c2nc(CC(=O)[O-])c(OCC)o2)cc1.[Na+]
Ans. 28

Qu. Look up and report measured Reduction Rate (%) Triglyceride for this entry: CCCCCCCCCCCCCCCCOc1ccc(-c2nc(CC(=O)O)c(Oc3ccc(Cl)cc3)o2)cc1
Ans. 37
